Source of measurements: PubChem BioAssay AID588453

- TARGET DESC: Thioredoxin reductase 1, cytoplasmic (Rattus norvegicus) (UniProt O89049)
- Sequence (O89049 whole entry, looked up): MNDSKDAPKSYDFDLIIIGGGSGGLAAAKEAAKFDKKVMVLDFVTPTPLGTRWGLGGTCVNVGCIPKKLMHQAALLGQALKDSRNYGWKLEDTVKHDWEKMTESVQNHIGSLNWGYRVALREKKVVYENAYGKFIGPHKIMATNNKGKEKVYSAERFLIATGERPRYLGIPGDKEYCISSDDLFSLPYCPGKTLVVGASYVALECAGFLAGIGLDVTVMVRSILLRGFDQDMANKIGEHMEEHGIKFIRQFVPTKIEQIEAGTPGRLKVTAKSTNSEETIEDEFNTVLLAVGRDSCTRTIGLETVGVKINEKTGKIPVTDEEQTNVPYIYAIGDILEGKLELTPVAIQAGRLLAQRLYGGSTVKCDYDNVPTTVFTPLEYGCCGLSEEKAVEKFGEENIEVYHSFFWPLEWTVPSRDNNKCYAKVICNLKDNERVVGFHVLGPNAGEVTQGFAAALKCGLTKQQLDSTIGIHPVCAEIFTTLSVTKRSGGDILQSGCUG
- ASSAY OVERVIEW: qHTS Assay for Inhibitors of Mammalian Selenoprotein Thioredoxin Reductase 1 (TrxR1): qHTS; further: nearly all actives have a fitted effect of over 65% in size
- CONDITION CONTEXT: recombinant rTrxR1, NADPH fluorescence consumption, selenite substrate; series mostly up to 114 µM
Out of some 390,000 compounds screened, about 4,000 (1%) were called active. Another 4% or so got no clear call; they are omitted. The call rests on the fitted dose curve; in most records, active means well fitted inhibition curve with a large enough effect; inconclusive means small, poorly fitted or top-dose-only effect; inactive means no such curve, though single readings can be large or run the other way. Many of the other results were omitted from the sample, so actives are more common in it than they were.
// allowed return values: 1 = active, 0 = inactive

CCOC(=O)c1cnc2sccn2c1=O    0
O=C(Nc1ccccc1Cl)/C(Cl)=C(\Cl)S(=O)c1ccccc1 (centres undefined)    1
CCOC(=O)c1cnc2[nH]c3ccccc3n2c1=O    1

# input for lookup
Ask: # fetch the recorded call for O=C(NNC1CC(=O)N(c2cccc(Cl)c2)C1=O)c1cccnc1 (centres undefined) here
Reply: 0

---

- TARGET DESC: Thioredoxin reductase 1, cytoplasmic (Rattus norvegicus) (UniProt O89049)
- ASSAY OVERVIEW: qHTS Assay for Inhibitors of Mammalian Selenoprotein Thioredoxin Reductase 1 (TrxR1): qHTS; further: nearly all actives have a fitted effect of over 65% in size
- CONDITION CONTEXT: recombinant rTrxR1, NADPH fluorescence consumption, selenite substrate; series mostly up to 114 µM
- From the text: The selenoprotein thioredoxin reductase (TrxR; EC 1.8.1.9) is a FAD containing homodimeric pyridine nucleotide-disulfide oxidoreductase with many cellular roles. Together with NADPH and its prime substrate thioredoxin (Trx), the enzyme forms the core of the Trx system. […] This BioAssay is a validation of an NADPH fluorescence-based, dual-purpose qHTS rTrxR1 assay designed to find potential inhibitors and substrates of rTrxR1. […]
The campaign covered roughly 390,000 compounds. About 4,000 (1%) were called active. Not shown: some 4% with an inconclusive outcome. Calls follow the shape of the dose curve; as a rule, active = well fitted inhibition curve with a large enough effect; inconclusive = small, poorly fitted or top-dose-only effect; inactive = no such curve, though single readings can be large or run the other way. This is one part of a sample in which actives are shown more often than they occur.
// allowed return values: active, inactive

COc1cccc2sc(N(CCCN(C)C)C(=O)CCS(=O)(=O)c3ccccc3)nc12    active
COc1ccc2c(c1OC)C(=O)OC2Nc1nc(-c2ccccc2)cs1 (stereo not drawn)    active
CCOC(=O)c1cc2c(=O)n3ccccc3nc2n(CC2CCCO2)c1=NC(=O)c1ccc(C(C)(C)C)cc1 (stereo not drawn)    inactive
O=C(O)C1CC=CC2CCN(C3CCCCC3)C(=O)C21 (stereo not drawn)    inactive
Cc1cccc2sc(N(CCCN(C)C)C(=O)CCS(=O)(=O)c3ccccc3)nc12    active

Ask: # fetch the recorded call for COc1ccc(CNC(=O)CS(=O)Cc2nc(-c3cccc(C)c3)oc2C)cc1 (stereo not drawn) here
Reply: inactive

Ask: Thanks! And Cc1cc(F)ccc1NS(=O)(=O)c1ccc(-n2cccn2)cc1 ?
Reply: inactive

Ask: Thanks! And CCOC(=O)Nc1ccc(S(=O)(=O)N(C)C(C)C)cc1 ?
Reply: inactive

---

- TARGET DESC: Thioredoxin reductase 1, cytoplasmic (Rattus norvegicus) (UniProt O89049)
- ASSAY OVERVIEW: qHTS Assay for Inhibitors of Mammalian Selenoprotein Thioredoxin Reductase 1 (TrxR1): qHTS; further: nearly all actives have a fitted effect of over 65% in size; further: potency means the concentration at half of the fitted maximal effect
- CONDITION CONTEXT: recombinant rTrxR1, NADPH fluorescence consumption, selenite substrate; series mostly up to 114 µM
The whole screen tested about 390,000 compounds, of which about 4,000 (1%) were called active. Another 4% or so got no clear call; they are omitted. Many of the other results were omitted from the sample, so actives are more common in it than they were.
METRIC: Potency

// known answers, use as guide
C/C(=N/Nc1nc(-c2ccccc2)c(CC(=O)O)s1)c1ccccc1    5.62 µM (active)
Cc1ccc(C=O)cc1Cl    inactive
CCOc1ccc(-n2c(C)nc3c(cnn3-c3ccc(C)cc3)c2=O)cc1    inactive
CCN1CCC2(CC1)N=C(c1ccc(F)cc1)C(=S)N2C(=O)c1ccc(C)cc1    15.8 µM (active)
CCOc1ccc(C(=O)N2CCN(CCc3ccccn3)CC2)cc1    inactive

Okay, here is my list. What is Potency for each of these?
1. C[C@@H](NC(=O)OC(C)(C)C)c1nnc(S(=O)(=O)Cc2ccccc2)o1
2. CCOc1ccc(-c2ccc(SCC(=O)N3CCOCC3)nn2)cc1

Reply:
1. 0.316 µM (active)
2. inactive

Okay, here is my list. What is Potency for each of these?
1. COc1cccc(CNC(=O)Cc2csc3nc(-c4ccccc4)cn23)c1
2. CCCCOc1ccc(CN2C(=O)C(=O)c3cc(Br)cc(C)c32)cc1OC
3. CCOC(=O)c1c(NC(=O)CCl)sc(C(=O)N(CC)CC)c1C
4. CCOc1n[nH]c(-c2ccccc2)n1
5. CN(N=O)c1ccc(C=C2c3ccccc3-c3ccccc32)cc1

Reply:
["inactive", "inactive", "31.6 µM (active)", "inactive", "inactive"]

Okay, here is my list. What is Potency for each of these?
1. COc1ccccc1/C=C/C(=O)NC(=S)N1CCOCC1
2. Cc1ccccc1CNC(=O)C1CCCN(S(=O)(=O)N(C)c2ccc(F)cc2)C1 (configuration not stated)
3. N#Cc1ccc[n+](CC(=O)c2ccc(F)cc2)c1

Reply:
1. inactive
2. inactive
3. inactive

Okay, here is my list. What is Potency for each of these?
1. Cc1ccc(NC(=O)CN2C(=O)C(c3ccc(F)cc3)=NC23CCCCCC3)c(C)c1
2. O=C(NCCc1ccccc1)c1ccc2c(c1)N(Cc1ccccc1)C(=O)c1ccccc1S2(=O)=O
3. CCCCC(CCCC)c1ccc(C=Nc2ccc(/C=C/c3ccnc4ccccc34)cc2)cc1
4. O=C1c2ccccc2C(=O)N1CCC(O)C[N+](=O)[O-] (configuration not stated)
5. O=C1c2ccccc2C(=O)N1CCOc1ccc(F)cc1
6. CCN1CCC(N(Cc2ccc(F)cc2)C(=O)Nc2cc(C)ccc2C)CC1
7. O=C(Cn1ncn2nc(-c3cccs3)cc2c1=O)NCc1cccc(Br)c1

Reply:
1. inactive
2. inactive
3. inactive
4. 70.8 µM (active)
5. inactive
6. inactive
7. inactive

Okay, here is my list. What is Potency for each of these?
1. CCC(Sc1nc2n[nH]c(C)c2c(=N)n1-c1ccccc1Cl)C(=O)N(CC)CC (configuration not stated)
2. O=c1c(NCc2cccs2)nccn1-c1ccccc1
3. O=C1C=CC(=O)N1c1ccc(N2CCCCC2)cc1
4. COc1ccc(NC(=O)CSc2nc3ncccc3[nH]2)c(OC)c1

Reply:
["inactive", "inactive", "0.708 µM (active)", "inactive"]

Okay, here is my list. What is Potency for each of these?
1. Cc1nc2ccccn2c(=O)c1NC(=O)c1c(F)cccc1F
2. Cc1nn(C)c2c1c(C(F)(F)F)cc(=O)n2C(C)C(=O)NCc1ccc(Cl)cc1 (configuration not stated)
3. Cc1c(Cl)cccc1NC(=O)CCS(=O)(=O)c1ccc2c(c1)oc(=O)n2C
4. C=C1C=C(C(F)F)n2ncc(C(=O)NCCc3ccccc3OC)c2N1

Reply:
1. inactive
2. inactive
3. inactive
4. inactive

Okay, here is my list. What is Potency for each of these?
1. CC(=O)NC(CC(=O)Nc1nc(-c2ccccc2)c(C(C)=O)s1)c1ccccc1 (configuration not stated)
2. CC(C)(C)n1nnnc1C(c1ccc2ncccc2c1)N1CCSCC1 (configuration not stated)
3. O=C(OCCN1C(=O)c2ccccc2C1=O)Oc1ccccc1
4. O=C(/C=C/c1ccco1)NC(=S)N1CCCCC1
5. CC(C)[C@@H](NC(=O)OC(C)(C)C)C(=O)NCC1CCC(C(=O)N[C@@H](Cc2ccccc2)C(=O)O)CC1 (some centres not stated)

Reply:
["inactive", "inactive", "inactive", "28.2 µM (active)", "inactive"]

Okay, here is my list. What is Potency for each of these?
1. Clc1cccc(-c2nc3nc4ccccc4nc3n2Cc2ccco2)c1
2. CC(=O)c1ccc[n+](C(C)CCC(C)[n+]2cccc(C(C)=O)c2)c1 (configuration not stated)

Reply:
1: 7.94 µM (active); 2: inactive
